As shown below, each of these sequences has a reported phosphorylation enrichment value.
target: Fyn (UniProt P06241); assay: phosphorylation enrichment, bacterial display (enrichment ratio); higher = better substrate or ligand; peptides without Tyr show the background;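 note: 11-residue human phosphosite peptides and single-mutation variants displayed on the E. coli surface, counted by deep sequencing, each peptide's frequency after selection divided by its frequency in the unselected input library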;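 note: frequency after pTyr selection over input frequency; kinase dosed for 20-30% of maximal phosphorylation in three min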
Sequence (P06241 whole entry, looked up): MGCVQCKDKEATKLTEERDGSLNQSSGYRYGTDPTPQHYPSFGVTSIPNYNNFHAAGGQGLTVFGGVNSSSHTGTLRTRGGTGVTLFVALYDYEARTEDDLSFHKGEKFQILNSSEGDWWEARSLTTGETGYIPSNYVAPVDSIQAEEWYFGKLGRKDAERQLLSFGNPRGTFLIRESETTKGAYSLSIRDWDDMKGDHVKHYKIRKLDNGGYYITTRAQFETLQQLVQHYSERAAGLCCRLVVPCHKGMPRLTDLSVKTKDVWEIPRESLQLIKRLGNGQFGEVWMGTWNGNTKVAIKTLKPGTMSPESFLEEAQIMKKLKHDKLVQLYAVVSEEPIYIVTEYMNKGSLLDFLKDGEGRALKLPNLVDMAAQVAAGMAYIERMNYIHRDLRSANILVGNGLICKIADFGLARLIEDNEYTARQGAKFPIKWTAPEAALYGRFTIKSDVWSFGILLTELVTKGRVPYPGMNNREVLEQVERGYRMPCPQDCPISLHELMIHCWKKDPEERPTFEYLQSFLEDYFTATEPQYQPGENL

Sample answers from the record:
- SEQUENCE DATA: "MALDIYRASYY [ALK_Y1278_R1275L]"
  phosphorylation enrichment: 0.974
- SEQUENCE DATA: "PLRADYLIARV [HLCS_Y635]"
  phosphorylation enrichment: 0.319
- SEQUENCE DATA: "EPSVDYCVVKI [CAD_Y735]"
  phosphorylation enrichment: 0.577
- SEQUENCE DATA: "SHLSAFPALEG [CD5_Y465_Y465F]"
  phosphorylation enrichment: 0.352
- SEQUENCE DATA: "VASMFYTLVIP [OR8K3_Y277_I275M]"
  phosphorylation enrichment: 0.661

[Q] Query (sequence): GNEEAYGRSHI [FAM171B_Y522] ; field requested: phosphorylation enrichment
[A] 0.425

[Q] Now try ALAQKYHGGGG [HBB_Y146_H144Q] .
[A] 0.335

[Q] Entry DTKPVYQNLRQ [BOD1_Y82_A81V] please
[A] 1.07
